Kd by entry:
target.or.test.system: CaM (Bos taurus, UniProt P62157)
Construct: made in house; host or cells: E. coli BL21 (DE3)
test.details: Pull-down assay with immobilized protein and LSM libraries
Format: binding, bovine
measurement.conditions: H14 library; 1:2 stoichiometry assumed; read-out: Surface mapping KD (apparent)
Reply with just the number (in µM).

Example entries and their recorded answers appear below.
structure.as.smiles	target.or.test.system	numeric.result
CC[C@H](C)[C@@H](CC(=O)N[C@H]1CCCC[C@@H]1C(=O)N[C@H]1CCCC[C@@H]1C(=O)N[C@@H](CO)CC(=O)N[C@H]1CCCC[C@@H]1C(N)=O)NC(=O)[C@H]1CCCC[C@@H]1N	CaM (Bos taurus, UniProt P62157)	142
NC(=O)[C@H]1CCCC[C@@H]1NC(=O)C[C@H](Cc1ccccc1)NC(=O)[C@H]1CCCC[C@@H]1NC(=O)[C@H]1CCCC[C@@H]1NC(=O)C[C@H](Cc1c[nH]c2ccccc12)NC(=O)[C@H]1CCCC[C@@H]1N	CaM (Bos taurus, UniProt P62157)	4
C[C@@H](O)[C@@H](CC(=O)N[C@H]1CCCC[C@@H]1C(=O)N[C@H]1CCCC[C@@H]1C(=O)N[C@H](CC(=O)N[C@H]1CCCC[C@@H]1C(N)=O)Cc1ccccc1)NC(=O)[C@H]1CCCC[C@@H]1N	CaM (Bos taurus, UniProt P62157)	163

Reported Kd for C[C@@H](O)[C@@H](CC(=O)N[C@H]1CCCC[C@@H]1C(N)=O)NC(=O)[C@H]1CCCC[C@@H]1NC(=O)[C@H]1CCCC[C@@H]1NC(=O)C[C@H](CCCNC(=N)N)NC(=O)[C@H]1CCCC[C@@H]1N was 124
